The reported numbers originate from PubChem BioAssay AID1963983.

So I've got a bunch of molecules here, and I need their viability, T/C values.
- System: 186277-243-T-J2-PDC multi-cell spheroid viability;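 note: spheroids exposed to compounds for seven days before viability reading; 100% = DMSO vehicle control viability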
- TEST DESCRIPTION: Anticancer human tumor 186277-243-T-J2-PDC patient-derived colon adenocarcinoma cell line growth inhibition [PI3K]
- ASSAY CONTEXT: second compound 0.0316 µM; first compound 1 µM; stronger effect = lower value
- From the text: Combinatorial screen of targeted agents with the PI3K inhibitors inavolisib, alpelisib, duvelisib, and copanlisib in multi-cell type tumor spheroids A high-throughput screen of multi-cell type tumor spheroids was designed to identify active combinations of targeted small molecules and PI3K pathway inhibitors. […] Compounds. […] If the clinical Cmax for an agent had not been determined, the highest concentration tested was 10 microM. […]
Just the number in %, nothing appended.

Input CC1(C)CCC(CN2CCN(c3ccc(C(=O)NS(=O)(=O)c4ccc(NCC5CCOCC5)c([N+](=O)[O-])c4)c(Oc4cnc5[nH]ccc5c4)c3)CC2)=C(c2ccc(Cl)cc2)C1 + CC(Nc1ccc2c(c1)OCCn1cc(N3C(=O)OCC3C(F)F)nc1-2)C(N)=O , output reported viability, T/C.
89.4

Input CCCS(=O)(=O)Nc1ccc(F)c(C(=O)c2c[nH]c3ncc(-c4ccc(Cl)cc4)cc23)c1F + Cc1nc(NC(=O)N2CCCC2C(N)=O)sc1-c1ccnc(C(C)(C)C(F)(F)F)c1 , output reported viability, T/C.
89.2

Input C=CC(=O)N1CCN(c2nc(=O)n(-c3c(C)ccnc3C(C)C)c3nc(-c4c(O)cccc4F)c(F)cc23)C(C)C1 (stereo not drawn) + CC(Nc1ncnc2nc[nH]c12)c1cc2cccc(Cl)c2c(=O)n1-c1ccccc1 , output reported viability, T/C.
90.9
